Task for the reader: assign each of the following molecules its reported log10(IC50).
- study target: UniProtKB Q00534
- Sequence (Q00534 whole entry): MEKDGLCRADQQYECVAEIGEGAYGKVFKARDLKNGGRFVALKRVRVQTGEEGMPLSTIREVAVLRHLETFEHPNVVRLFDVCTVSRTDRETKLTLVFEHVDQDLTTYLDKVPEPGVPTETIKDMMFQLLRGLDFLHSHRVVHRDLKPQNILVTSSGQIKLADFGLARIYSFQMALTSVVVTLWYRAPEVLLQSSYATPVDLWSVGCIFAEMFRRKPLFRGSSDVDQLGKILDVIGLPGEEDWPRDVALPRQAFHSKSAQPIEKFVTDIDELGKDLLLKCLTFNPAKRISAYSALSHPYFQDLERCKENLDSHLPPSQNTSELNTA
- Sequence (P30281 whole entry partner): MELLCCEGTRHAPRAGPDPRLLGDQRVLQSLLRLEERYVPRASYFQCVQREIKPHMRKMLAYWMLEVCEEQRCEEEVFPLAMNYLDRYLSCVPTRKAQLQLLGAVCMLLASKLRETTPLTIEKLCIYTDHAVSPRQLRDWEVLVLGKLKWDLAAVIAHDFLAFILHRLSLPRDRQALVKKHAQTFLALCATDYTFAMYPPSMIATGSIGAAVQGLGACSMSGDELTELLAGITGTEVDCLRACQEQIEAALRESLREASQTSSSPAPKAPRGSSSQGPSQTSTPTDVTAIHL
- method notes: Microfluidic LabChip inhibition assay, CDK6-CYCLIND3
- Assay type: biochemical
- condition summary: Table 3a; ATP 300 μM; read-out: CDK6 CyclinD3 IC50
Note: values are log10 of IC50 expressed in nM.

Fill in log10(IC50) for record CN1CCN(c2ccc(Nc3ncc4cc(C(=O)N(C)C)c(=O)n(C5CCCC5)c4n3)cc2F)CC1 [Compound B139]
1.88

Fill in log10(IC50) for record CC(=O)c1c(C)c2cnc(Nc3ccc(OCCN4CCCCC4)cn3)nc2n(C2CCCC2)c1=O [Compound B67]
2.47

Fill in log10(IC50) for record COc1cc(Nc2ncc3c(C)c(C(C)=O)c(=O)n(C4CCCC4)c3n2)ccc1OCCN(C)C [Compound B62]
1.57

Fill in log10(IC50) for record CC(=O)c1c(C)c2cnc(Nc3ccc(N(C)CCN(C)C)cc3)nc2n(C2CCCC2)c1=O [Compound B64]
1.88

Fill in log10(IC50) for record CNC(=O)c1cc2cnc(Nc3ccc(N4CCN(C)CC4)cc3)nc2n(C2CCCC2)c1=O [Compound B143]
2.13

Fill in log10(IC50) for record N#Cc1cc2cnc(Nc3ccc(N4CCNCC4)c(F)c3)nc2n(C23CC(C2)C3)c1=O [Compound B147]
1.91

Fill in log10(IC50) for record CNC(=O)c1cc2cnc(Nc3ccc(N4CCN(C)CC4)c(F)c3)nc2n(C2CCCC2)c1=O [Compound B144]
2.14

Fill in log10(IC50) for record CC(=O)c1c(C)c2cnc(Nc3ccc(OCCN(C)C)cn3)nc2n(C2CCCC2)c1=O [Compound B65]
1.67

Fill in log10(IC50) for record CN1CCN(c2ccc(Nc3ncc4cc(C(=O)N(C)C)c(=O)n(C5CCCC5)c4n3)nc2)CC1 [Compound B141]
3.30

Fill in log10(IC50) for record CNC(=O)c1cc2cnc(Nc3ccc(N4CCN(C)CC4)nc3)nc2n(C2CCCC2)c1=O [Compound B145]
3.35

Fill in log10(IC50) for record CC(=O)c1c(C)c2cnc(Nc3ccc(OCCN(C)C)cc3)nc2n(C2CCCC2)c1=O [Compound B60]
1.00

Fill in log10(IC50) for record CC(=O)NC(=O)c1cc2cnc(Nc3ccc(N4CCN(C)CC4)cn3)nc2n(C2CCCC2)c1=O [Compound B146]
3.17

Fill in log10(IC50) for record CC(=O)c1c(C)c2cnc(Nc3ccc(OCCN(C)C)c(C)c3)nc2n(C2CCCC2)c1=O [Compound B61]
3.60

Fill in log10(IC50) for record CN1CCN(c2ccc(Nc3ncc4cc(C#N)c(=O)n(C56CC(C5)C6)c4n3)cc2F)CC1 [Compound B148]
2.01

Fill in log10(IC50) for record CC(=O)c1c(C)c2cnc(Nc3ccc(OCCN(C)C)nc3)nc2n(C2CCCC2)c1=O [Compound B63]
1.57

Reference source for all entries: patent US20220220103A1
